Experiment: Twenty-four hour aqueous solubility at 25° C.
Format: physicochemical
Details: aqueous buffer, thermodynamic from solid, crystalline, pH 6.0 phosphate buffer (USP), media pH 5.99
Procedure: Twenty-four Hour Aqueous Solubility of Crystalline GLP1RA-Ca at 25° C. Twenty-Four Hour Aqueous Solubility of Preparation 3 SDD at 25° C.
Assay Endpoint: solubility at 24 h

Exercise: What value of solubility at 24 h has been recorded for this entry: Cc1cc(-n2nc3c(c2-n2ccn(-c4ccc5c(cnn5C)c4F)c2=O)[C@H](C)N(C(=O)c2cc4cc([C@H]5CCOC(C)(C)C5)ccc4n2[C@@]2(c4noc(=O)[nH]4)C[C@@H]2C)CC3)cc(C)c1F [GLP1RA-Ca, hydrate]
Solution: < 1 µg/mL

----------
Test: Twenty-four hour aqueous solubility at 25° C.
Assay type: physicochemical
Conditions: thermodynamic from solid, crystalline, Water, media pH not measured
Assay Endpoint: solubility at 24 h (µg/mL)
The response must be a number in µg/mL with no trailing unit.

Exercise: Recorded solubility at 24 h of Cc1cc(-n2nc3c(c2-n2ccn(-c4ccc5c(cnn5C)c4F)c2=O)[C@H](C)N(C(=O)c2cc4cc([C@H]5CCOC(C)(C)C5)ccc4n2[C@@]2(c4noc(=O)[nH]4)C[C@@H]2C)CC3)cc(C)c1F [GLP1RA-Ca, hydrate] , please.
Solution: 28

----------
Assay: Twenty-four hour aqueous solubility at 25° C.
Assay type: physicochemical
Settings: aqueous buffer, thermodynamic from solid, crystalline, pH 4.5 acetate buffer (USP), media pH 4.5
Assay Endpoint: solubility at 24 h

Exercise: Which solubility at 24 h value belongs to Cc1cc(-n2nc3c(c2-n2ccn(-c4ccc5c(cnn5C)c4F)c2=O)[C@H](C)N(C(=O)c2cc4cc([C@H]5CCOC(C)(C)C5)ccc4n2[C@@]2(c4noc(=O)[nH]4)C[C@@H]2C)CC3)cc(C)c1F [GLP1RA-Ca, hydrate] ?
Solution: < 1 µg/mL

----------
Experiment: Twenty-four hour aqueous solubility at 25° C.
Type: physicochemical
Details: fessif, thermodynamic from solid, crystalline, Fed state simulated intestinal fluid, media pH 4.93
Assay Endpoint: solubility at 24 h (µg/mL)
Unit µg/mL implied. Number only.

Exercise: Give the measured solubility at 24 h of Cc1cc(-n2nc3c(c2-n2ccn(-c4ccc5c(cnn5C)c4F)c2=O)[C@H](C)N(C(=O)c2cc4cc([C@H]5CCOC(C)(C)C5)ccc4n2[C@@]2(c4noc(=O)[nH]4)C[C@@H]2C)CC3)cc(C)c1F [GLP1RA-Ca, hydrate] .
Solution: 13

----------
Experiment: Twenty-four hour aqueous solubility at 25° C.
Format: physicochemical
Details: simulated gastric fluid, thermodynamic from solid, crystalline, 0.01N HCl, media pH 1.98
Assay Endpoint: solubility at 24 h

Exercise: Would you mind telling me what solubility at 24 h value was observed for Cc1cc(-n2nc3c(c2-n2ccn(-c4ccc5c(cnn5C)c4F)c2=O)[C@H](C)N(C(=O)c2cc4cc([C@H]5CCOC(C)(C)C5)ccc4n2[C@@]2(c4noc(=O)[nH]4)C[C@@H]2C)CC3)cc(C)c1F [GLP1RA-Ca, hydrate] ?
Solution: < 1 µg/mL

----------
Experiment: Twenty-four hour aqueous solubility at 25° C.
Type: physicochemical
Conditions: fassif, thermodynamic from solid, crystalline, Fasted state simulated intestinal fluid, media pH 6.49
Assay Endpoint: solubility at 24 h (µg/mL)
Report only the number, with the unit µg/mL understood.

Exercise: Suppose we examine the molecule Cc1cc(-n2nc3c(c2-n2ccn(-c4ccc5c(cnn5C)c4F)c2=O)[C@H](C)N(C(=O)c2cc4cc([C@H]5CCOC(C)(C)C5)ccc4n2[C@@]2(c4noc(=O)[nH]4)C[C@@H]2C)CC3)cc(C)c1F [GLP1RA-Ca, hydrate] ; what solubility at 24 h value has been reported?
Solution: 2
